Each entry below carries its reported polymerase ribozyme fitness (log ratio).
B1: TPR 5TU (parent)
chain: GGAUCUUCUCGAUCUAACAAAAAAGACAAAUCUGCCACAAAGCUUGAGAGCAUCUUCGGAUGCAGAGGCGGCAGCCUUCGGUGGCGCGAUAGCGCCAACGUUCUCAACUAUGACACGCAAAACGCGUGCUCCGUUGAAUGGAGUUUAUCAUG

Variants of: B1
test-protocol: polymerase ribozyme fitness, log enrichment relative to wild type (log ratio); higher = more active; in vitro selection for triplet polymerase activity
This sample holds only a part of the variants without activity.
# print the numeric value only

Answered examples (10):
mutation-label	readout-kind	result
C36U U55A	polymerase ribozyme fitness (log ratio)	-0.574
C38U C85A G117C	polymerase ribozyme fitness (log ratio)	-0.0326
A41C C116G	polymerase ribozyme fitness (log ratio)	-0.175
U55A U56A	polymerase ribozyme fitness (log ratio)	-0.654
C54U C96U C118U	polymerase ribozyme fitness (log ratio)	-0.868
C93U G136C	polymerase ribozyme fitness (log ratio)	-4.02
G11U C87G	polymerase ribozyme fitness (log ratio)	-4.09
A89C C103A	polymerase ribozyme fitness (log ratio)	-2.11
U7G C85U	polymerase ribozyme fitness (log ratio)	-2.79
U13C C93U U134A	polymerase ribozyme fitness (log ratio)	-3.08

From here, focus on the item given below.
// query What polymerase ribozyme fitness (log ratio) value was documented for this variant, A73U C95A U104G ?
// result -4.05

Where do these numbers come from? They come from the RNAGym collection of RNA variant scans (doi:10.1073/pnas.2313332121).
